Biological target: h-GABA-A α5β3γ2 (Homo sapiens, UniProt P18507+P31644)
Construct: expressed in transfected cells; host or cells: Xenopus laevis oocytes, micro-injected with subunit RNA
Assay: [3H]flumazenil competition binding assay on membranes of HEK293 cells expressing GABAA receptors
Details: Table 1; displacement of [3H]-Flumazenil (0.5 nM), HEK293 cells expressing human receptors, means of two determinations
The entries below come with measured Ki values attached.
Measured Parameter: Ki (µM)

>  <Compound>
Cn1nnc(-c2ccc(C(F)(F)F)cc2F)c1Cn1ncc(N2CC(OC(F)F)C2)cc1=O [Example 71]

>  <Recorded Measurement>
0.0122

$$$$
>  <Compound>
C[C@H]1CN(c2cnn(Cc3c(-c4ccc(Cl)cc4F)nnn3C)c(=O)c2)CCO1 [Example 45]

>  <Recorded Measurement>
0.0014

$$$$
>  <Compound>
COc1ncc(-c2cnn(Cc3c(-c4ccc(C)nc4)nnn3C)c(=O)c2)cc1Cl [Example 82]

>  <Recorded Measurement>
0.031

$$$$
>  <Compound>
Cn1nnc(-c2ncc(C(F)(F)F)cn2)c1Cn1ncc(N2CC(OC3CCC3)C2)cc1=O [Example 117]

>  <Recorded Measurement>
0.0527

$$$$
>  <Compound>
C[C@@H]1CCCN1c1cnn(Cc2c(-c3ccc(Cl)nc3)nnn2C)c(=O)c1 [Example 109]

>  <Recorded Measurement>
0.0011

$$$$
